pIC50: −log10 of the molar value.
Record set of pIC50 for target or system acetylcholinesterase (Homo sapiens, UniProt P22303).

{"MOLECULE": "COC(=O)C(C)Oc1nc(-c2ccccc2)nc2c(C(=O)c3ccccc3)c(OC)cc(OC)c12 (centres unmarked)", "ASSAYED_SYSTEM": "acetylcholinesterase (Homo sapiens, UniProt P22303)", "pIC50": 5.21}
{"MOLECULE": "COc1cc(OC)c2c(-c3ccccc3)c(-c3ccccc3)[nH]c2c1C(=O)C(Cl)(Cl)Cl", "ASSAYED_SYSTEM": "acetylcholinesterase (Homo sapiens, UniProt P22303)", "pIC50": 5.14}
